Experiment: soluble fraction after stress (log2 fold change); higher = more stays soluble; pooled small domains, quantitative proteomics;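 further: 20 min heating vs room temperature control held 20 min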
Settings: stress: 75 degC
We use -0.9 as the dividing line for soluble fraction (log2): on or above the line is 1, below is -1.

Asked: Hi team, for HMEFLDLEIDVDATDGRLLAFLAAKGEVVSQTFNDTIITVRVRMPTGAMGQVHRSALAIRPA , is the recorded soluble fraction (log2) at or above -0.9?
Given back: -1

Asked: Hi team, for HMSELSEVIEKTFEELPEELKLIVKLREIDDLSYDEISNKIGIPIGTVRSRLHRAREILINIIKN , is the recorded soluble fraction (log2) at or above -0.9?
Given back: -1

Asked: Hi team, for HMGMYAEERHQAIASLARKHGRVSVAELAERFNVTSETIRRDLDSLARRGLLTRVHGGAVPVE , is the recorded soluble fraction (log2) at or above -0.9?
Given back: 1

Asked: Hi team, for HMVEDFSEVLLQYIREQGGAIALNDKTDAGVIYDTFGVSKKTFKKAVGDLYKKRLIVLGDEGIRLA , is the recorded soluble fraction (log2) at or above -0.9?
Given back: 1
